Data provenance: patent US6632809B2

# target: DNA gyrase (374 kDa Gyr A2B2 subunit from Staphylococcus aureus) (Staphylococcus aureus, UniProt P0A0K8)
# Sequence (P0A0K8 whole entry): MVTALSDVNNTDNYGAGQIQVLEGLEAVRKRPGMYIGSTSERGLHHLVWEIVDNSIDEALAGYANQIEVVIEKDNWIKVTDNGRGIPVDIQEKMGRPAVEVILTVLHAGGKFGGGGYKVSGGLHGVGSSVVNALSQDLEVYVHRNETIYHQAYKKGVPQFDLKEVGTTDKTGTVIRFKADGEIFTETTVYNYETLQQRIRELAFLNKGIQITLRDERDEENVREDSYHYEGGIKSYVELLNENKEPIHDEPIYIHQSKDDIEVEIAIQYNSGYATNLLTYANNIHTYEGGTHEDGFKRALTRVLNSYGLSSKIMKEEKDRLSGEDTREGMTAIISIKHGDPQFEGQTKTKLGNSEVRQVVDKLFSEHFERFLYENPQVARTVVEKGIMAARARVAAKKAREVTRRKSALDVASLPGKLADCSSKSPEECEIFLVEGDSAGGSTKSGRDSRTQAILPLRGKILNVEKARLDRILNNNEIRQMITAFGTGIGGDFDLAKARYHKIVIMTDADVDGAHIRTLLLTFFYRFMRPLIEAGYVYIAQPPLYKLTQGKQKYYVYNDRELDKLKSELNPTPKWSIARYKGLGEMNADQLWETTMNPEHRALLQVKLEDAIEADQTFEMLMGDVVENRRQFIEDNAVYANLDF
# Sequence (P20831 whole entry, further chain): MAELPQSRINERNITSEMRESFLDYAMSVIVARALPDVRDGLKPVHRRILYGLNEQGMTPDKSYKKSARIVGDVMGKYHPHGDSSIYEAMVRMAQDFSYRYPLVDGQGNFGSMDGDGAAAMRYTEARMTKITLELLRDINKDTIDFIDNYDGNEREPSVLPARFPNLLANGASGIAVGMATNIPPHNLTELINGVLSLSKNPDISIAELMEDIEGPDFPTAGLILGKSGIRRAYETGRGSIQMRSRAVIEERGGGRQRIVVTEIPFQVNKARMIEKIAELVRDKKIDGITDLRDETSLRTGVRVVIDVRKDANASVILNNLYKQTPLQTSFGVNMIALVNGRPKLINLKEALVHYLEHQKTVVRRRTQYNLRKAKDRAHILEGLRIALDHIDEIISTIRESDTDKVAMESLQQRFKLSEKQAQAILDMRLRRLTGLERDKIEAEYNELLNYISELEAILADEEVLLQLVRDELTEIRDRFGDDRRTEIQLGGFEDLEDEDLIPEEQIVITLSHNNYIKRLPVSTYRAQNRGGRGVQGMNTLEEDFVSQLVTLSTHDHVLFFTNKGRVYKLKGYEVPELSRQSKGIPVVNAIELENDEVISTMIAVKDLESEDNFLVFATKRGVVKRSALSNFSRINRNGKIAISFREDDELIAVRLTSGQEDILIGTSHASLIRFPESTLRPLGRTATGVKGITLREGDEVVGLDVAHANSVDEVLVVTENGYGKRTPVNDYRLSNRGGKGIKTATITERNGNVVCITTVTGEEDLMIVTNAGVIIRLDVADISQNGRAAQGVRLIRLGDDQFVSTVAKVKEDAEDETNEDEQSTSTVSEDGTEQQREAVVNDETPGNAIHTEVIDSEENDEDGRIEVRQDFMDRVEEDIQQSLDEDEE
# assay.method.text: Gyrase ATPase Assay
# Type: biochemical
# cond: 10 μM concentration; ATPase assay at 30° C., 0.9 mM ATP; average of duplicate values; read-out: Gyrase Inhibitory Activity (percent inhibition)
molecules and their reported inhibition at 10 µM

Briefly, inhibition at 10 µM measured for CCOC(=O)Nc1nc2cc(-c3cnc(NC(COC(C)(C)C)C(=O)OC(C)(C)C)nc3)ccc2[nH]1 (stereo not shown) : > 75%

Note to self: inhibition at 10 µM recorded for `CCCNc1nc2cc(-c3cccnc3)ccc2[nH]1` was < 50%

Note to self: inhibition at 10 µM recorded for `CCNC(=O)Nc1nc2cc(-c3cnc(OC)nc3)c(OC)cc2[nH]1` was > 75%

`CCCC(=O)Nc1nc2cc(-c3ccccc3)ccc2[nH]1` has a reported inhibition at 10 µM of < 50%

The value of inhibition at 10 µM measured for the molecule `C=CCNC(=O)c1cn(-c2ccc3[nH]c(NC(=O)NCC)nc3c2)cn1` turned out to be > 75%

The molecule `CCNC(=O)Nc1nc2cc(-c3cnc(NC4CC4)nc3)ccc2[nH]1` showed inhibition at 10 µM equal to > 75%
